Where do the numbers come from? From patent US6967196B1.

- Test system: amyloid β production in transfected H4 (human neuroglioma) cells stably expressing APP constructs
- TEST_NAME: In vitro cell-based assay of inhibitors of amyloid β production (ELISA)
- CONDITION_DESCRIPTION: transfected H4 cells stably expressing APP; approximately 16 hours incubation; amyloid β in medium by ELISA; hydrochloride; read-out: ACTIVITY (IC50, inhibition of amyloid β production)
Structures can show the parent of a compound that is named as a salt.
IC50 values by entry
ATTRIBUTE_MEASURED: IC50

>>> result("CCC[C@@H](C)N(Cc1ccccc1OCCCN1CCCCC1)S(=O)(=O)c1ccc(Cl)cc1 [Example 980, hydrochloride]")
"> 500 nM"
>>> result("C[C@@H](c1ccccc1OCCCn1ccnc1)N(c1cc(F)ccc1F)S(=O)(=O)c1ccc(Cl)cc1 [Example 1048, hydrochloride]")
"> 500 nM"
>>> result("CCC[C@@H](C)N(Cc1ccccc1OCCCN1CCCCC1)S(=O)(=O)c1ccc(Cl)cc1 [Example 867, hydrochloride]")
"100 to 500 nM"
>>> result("C[C@@H](c1ccccc1OCCCn1ccnc1)N(c1cc(F)ccc1F)S(=O)(=O)c1ccc(Cl)cc1 [Example 861, hydrochloride]")
"100 to 500 nM"
